experimental system: human β3 adrenergic receptor (Homo sapiens)
Construct: expressed in transfected cells
Sequence (P13945 whole entry): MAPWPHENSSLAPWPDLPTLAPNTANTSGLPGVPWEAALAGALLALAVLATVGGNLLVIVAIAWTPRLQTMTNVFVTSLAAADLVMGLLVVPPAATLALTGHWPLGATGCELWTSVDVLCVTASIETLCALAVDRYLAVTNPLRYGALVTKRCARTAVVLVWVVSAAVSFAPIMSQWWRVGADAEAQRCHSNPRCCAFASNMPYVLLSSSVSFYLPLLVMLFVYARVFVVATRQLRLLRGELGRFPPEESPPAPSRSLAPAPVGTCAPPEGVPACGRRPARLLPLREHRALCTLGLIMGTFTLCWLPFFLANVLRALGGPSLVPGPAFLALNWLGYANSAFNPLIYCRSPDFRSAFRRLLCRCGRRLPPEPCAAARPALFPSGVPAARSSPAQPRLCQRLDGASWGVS
experiment: whole cell receptor coupled c-AMP assay (Emax relative to isoproterenol)
Assay type: cell-based
test parameters: CHO, % intrinsic activity: maximal response divided by isoproterenol maximal response times 100; transfected CHO cells; average of at least 3 runs
Description: […] Cells from each of the above cell lines are resuspended and added (20,000/well) to a 96-well plate. […] After halting the incubation with quench buffer (50 mM Na Acetate, 0.25% Triton X-100, pH 5.8), the c-AMP level is quantified by scintillation proximity assay (SPA) using a modification of the commercially available c-AMP kit (Amersham, Arlington Heights, Ill.) with rabbit anti-cAMP antibody (ICN Biomedicals, Aurora, Ohio) for the kit. […]
metric name: Emax (%)
Give bare numbers, in %.

>  <entry smiles>
C[C@H](Cn1ccc2c(C(=O)O)cccc21)NC[C@H](O)COc1ccccc1-c1cccs1

>  <Emax [%]>
59.6

$$$$
>  <entry smiles>
CC(C)(Cc1c[nH]c2c(OCC(=O)O)cccc12)NC[C@H](O)COc1ccccc1-c1nccs1

>  <Emax [%]>
66.4

$$$$
>  <entry smiles>
CC(C)(Cc1c[nH]c2c(OCc3nnn[nH]3)cccc12)NC[C@H](O)COc1ccccc1-c1cccs1

>  <Emax [%]>
83

$$$$

Value sought for every listed compound: Emax.
1. CC(C)(Cc1c[nH]c2cc(C(=O)O)ccc12)NC[C@H](O)COc1ccccc1-c1cccs1
2. CC(C)(Cc1c[nH]c2c(CCc3nnn[nH]3)cccc12)NC[C@H](O)COc1ccccc1-c1cccs1
3. CC(C)(Cc1c[nH]c2cc(OCC(=O)O)ccc12)NC[C@H](O)COc1ccccc1-c1cccs1
4. CC(C)(Cc1c[nH]c2c(-c3ccc(C(=O)O)cc3)cccc12)NC[C@H](O)COc1ccccc1-c1ccon1
5. CC(C)(Cc1c[nH]c2c(/C=C/c3nnn[nH]3)cccc12)NC[C@H](O)COc1ccccc1-c1cccs1
6. CC(C)(Cc1c[nH]c2c(OCC(=O)O)cccc12)NC[C@H](O)COc1ccccc1-c1ccno1
7. CC(C)(Cc1c[nH]c2c(OCC#N)cccc12)NC[C@H](O)COc1ccccc1-n1cccc1
8. CC(C)(Cc1c[nH]c2c(Oc3ccc(C(=O)O)cn3)cccc12)NC[C@H](O)COc1ccccc1-c1ccon1

78.7
79.5
88.4
54.6
81.3
52.4
71.4
77

Value sought for every listed compound: Emax.
1. CC(C)(Cc1c[nH]c2c(OCC(=O)O)cccc12)NC[C@H](O)COc1ccccc1-c1ccon1
2. CC(C)(Cc1c[nH]c2cc(CCc3nnn[nH]3)ccc12)NC[C@H](O)COc1ccccc1-c1cccs1
3. CC(C)(Cc1c[nH]c2c(C(=O)O)cccc12)NC[C@H](O)COc1ccccc1-c1cccs1

56.1
83.9
70.1
